targetOrSystem: HiBit-BRG1 fusion protein in stable HeLa cell line expressing HiBit-BRG1 and LgBit (Homo sapiens)
Construct: expressed in transfected cells
Sequence (P51532 whole entry, the tested form may be a part): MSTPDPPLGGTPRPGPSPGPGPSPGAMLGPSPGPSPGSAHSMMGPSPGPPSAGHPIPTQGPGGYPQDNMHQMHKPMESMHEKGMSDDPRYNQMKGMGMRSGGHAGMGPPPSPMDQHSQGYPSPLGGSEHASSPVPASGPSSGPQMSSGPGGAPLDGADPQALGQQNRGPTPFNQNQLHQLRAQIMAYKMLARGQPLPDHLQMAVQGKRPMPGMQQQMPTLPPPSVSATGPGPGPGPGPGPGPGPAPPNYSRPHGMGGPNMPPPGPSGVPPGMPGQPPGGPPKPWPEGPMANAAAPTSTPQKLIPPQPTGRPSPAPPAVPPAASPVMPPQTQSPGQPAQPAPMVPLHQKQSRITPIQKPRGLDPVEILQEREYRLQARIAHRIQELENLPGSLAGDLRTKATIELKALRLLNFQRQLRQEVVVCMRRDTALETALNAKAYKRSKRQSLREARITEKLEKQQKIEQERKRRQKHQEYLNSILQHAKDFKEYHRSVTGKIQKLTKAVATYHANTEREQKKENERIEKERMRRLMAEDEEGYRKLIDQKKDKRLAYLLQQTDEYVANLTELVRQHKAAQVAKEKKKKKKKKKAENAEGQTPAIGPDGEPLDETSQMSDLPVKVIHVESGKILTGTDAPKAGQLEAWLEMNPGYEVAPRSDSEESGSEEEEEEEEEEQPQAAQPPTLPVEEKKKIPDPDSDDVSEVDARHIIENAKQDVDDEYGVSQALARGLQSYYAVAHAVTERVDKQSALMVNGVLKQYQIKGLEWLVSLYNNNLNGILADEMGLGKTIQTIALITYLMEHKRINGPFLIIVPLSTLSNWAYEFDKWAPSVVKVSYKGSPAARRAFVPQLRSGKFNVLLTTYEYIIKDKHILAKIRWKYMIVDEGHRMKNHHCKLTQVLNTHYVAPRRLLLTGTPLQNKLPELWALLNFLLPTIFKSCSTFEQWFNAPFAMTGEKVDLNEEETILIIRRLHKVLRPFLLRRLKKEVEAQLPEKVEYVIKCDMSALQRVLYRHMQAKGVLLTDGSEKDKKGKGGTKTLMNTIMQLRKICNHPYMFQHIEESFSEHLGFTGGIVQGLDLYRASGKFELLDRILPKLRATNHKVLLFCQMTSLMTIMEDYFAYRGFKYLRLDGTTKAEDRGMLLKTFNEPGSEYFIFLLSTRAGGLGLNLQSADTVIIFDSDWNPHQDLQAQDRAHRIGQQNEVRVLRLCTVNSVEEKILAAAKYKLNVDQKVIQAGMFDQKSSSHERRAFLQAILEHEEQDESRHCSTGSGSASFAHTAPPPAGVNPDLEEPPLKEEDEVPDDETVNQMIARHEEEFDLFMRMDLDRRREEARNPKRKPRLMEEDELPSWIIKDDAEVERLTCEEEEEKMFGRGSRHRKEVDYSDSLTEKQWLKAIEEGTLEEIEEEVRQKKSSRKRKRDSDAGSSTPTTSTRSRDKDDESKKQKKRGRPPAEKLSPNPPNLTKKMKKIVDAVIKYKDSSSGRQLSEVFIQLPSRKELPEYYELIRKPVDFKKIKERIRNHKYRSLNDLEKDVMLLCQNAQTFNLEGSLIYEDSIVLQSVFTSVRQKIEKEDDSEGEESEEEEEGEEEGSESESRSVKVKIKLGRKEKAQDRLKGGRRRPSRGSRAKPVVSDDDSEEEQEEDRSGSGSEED
methodNotes: HiBiT-BRG1 cell-based degradation assay (Nano-Glo HiBiT, 24 h)
experimentalConditions: HeLa HiBit-BRG1/LgBit cells, read-out: BRMG1 HiBit Degradation IC50
assayMetric: DC50

Cc1ncsc1-c1ccc([C@H](C)NC(=O)[C@@H]2C[C@@H](O)CN2C(=O)[C@H](C(C)C)n2cc(N3CC4(CN(c5ccc6cc(-c7ccccc7O)nnc6c5)C4)C3)nn2)cc1    < 10 nM
Cc1ncsc1-c1ccc([C@H](C)NC(=O)[C@@H]2C[C@@H](O)CN2C(=O)[C@@H](c2cc(N3CCN([C@@H]4CCN(c5ccc6cc(-c7ccccc7O)nnc6c5)CC4(F)F)CC3)no2)C(C)C)cc1    < 10 nM
Cc1ncsc1-c1ccc([C@H](C)NC(=O)[C@@H]2C[C@@H](O)CN2C(=O)[C@@H](c2cc(-c3cnc(N4CC(c5cc6cc(-c7ccccc7O)nnc6cc5C5CC5)C4)nc3)no2)C(C)C)cc1    < 10 nM
Cc1ncsc1-c1ccc([C@H](C)NC(=O)[C@@H]2C[C@@H](O)CN2C(=O)C(C(C)C)n2cc(N3C4CCC3CN(c3ccc5nnc(-c6ccccc6O)cc5c3)C4)nn2)cc1 (stereo partly shown)    > 10 nM
Cc1ncsc1-c1ccc([C@H](C)NC(=O)[C@@H]2C[C@@H](O)CN2C(=O)[C@@H](c2cc(N3CC4(C3)CN(c3cc5nnc(-c6ccccc6O)cc5cc3Cl)C4)no2)C(C)C)cc1    < 10 nM
COC[C@@H]1CN(c2cc(C(C(=O)N3C[C@H](O)C[C@H]3C(=O)N[C@@H](C)c3ccc(-c4scnc4C)cc3)C(C)C)on2)CCN1c1ccc2nnc(-c3ccccc3O)cc2c1 (stereo partly shown)    > 10 nM
Cc1ncsc1-c1ccc([C@H](C)NC(=O)[C@@H]2C[C@@H](O)CN2C(=O)[C@@H](c2cc(N3CC4(CC(c5ccc6cc(-c7ccccc7O)nnc6c5)C4)C3)no2)C(C)C)cc1    > 10 nM
Cc1ncsc1-c1ccc([C@H](C)NC(=O)[C@@H]2C[C@@H](O)CN2C(=O)[C@@H](c2cc(N3CCC4(CCN(c5ccc6cc(-c7ccccc7O)nnc6c5)C4)CC3)no2)C(C)C)cc1    > 10 nM

Give the reported DC50 for this compound. CCOc1cc2cc(-c3ccccc3O)nnc2cc1N1CC2(CN(c3cc([C@H](C(=O)N4C[C@H](O)C[C@H]4C(=O)N[C@@H](C)c4ccc(-c5scnc5C)cc4)C(C)C)on3)C2)C1
< 10 nM

Give the reported DC50 for this compound. Cc1ncsc1-c1ccc([C@H](C)NC(=O)[C@@H]2C[C@@H](O)CN2C(=O)[C@@H](c2cc(-c3cnc(N4CC[C@H](c5ccc6cc(-c7ccccc7O)nnc6c5)C4)nc3)no2)C(C)C)cc1
< 10 nM

Give the reported DC50 for this compound. Cc1ncsc1-c1ccc([C@H](C)NC(=O)[C@@H]2C[C@@H](O)CN2C(=O)[C@H](C(C)C)n2cc(C3CC4(C3)CN(c3ccc5nnc(-c6ccccc6O)cc5c3)C4)nn2)cc1
< 10 nM

Give the reported DC50 for this compound. COc1cc2cc(-c3ccccc3O)nnc2cc1CN1CC[C@@H](N2CCN(c3cc([C@H](C(=O)N4C[C@H](O)C[C@H]4C(=O)N[C@@H](C)c4ccc(-c5scnc5C)cc4)C(C)C)on3)CC2)C(F)(F)C1
> 10 nM

Give the reported DC50 for this compound. Cc1ncsc1-c1ccc([C@H](C)NC(=O)[C@@H]2C[C@@H](O)CN2C(=O)[C@@H](c2cc(N3CC[C@H](c4ccc5cc(-c6ccccc6O)nnc5c4)C3)no2)C(C)C)cc1
< 10 nM

Data provenance is patent US20260193264A1.
